- System: L1210 leukemia ip in BDF1 mice, survival T/C
- method summary: NCI In Vivo Anticancer Drug Screen. Data for tumor model L1210 Leukemia (intraperitoneal) in B6D2F1 (BDF1) mice
- measurement context: endpoint: mean survival time; dose: 400.0 mg/kg/injection; schedule: Q04DX003 (ip); vehicle: Klucel (hydroxypropylcellulose) (HPC); higher = longer survival
- Procedure: The antitumor activity of compounds was measured in mice bearing transplantable tumors. Survival or tumor size were measured and the results are expressed as the measurement made in the treated group (T) divided by the measurement made in the vehicle treated control group (C). The tumor model used in this assay is L1210 Leukemia (intraperitoneal) in B6D2F1 (BDF1) mice
Toxic doses and inconclusive results are not listed.
recorded endpoint: T/C

Example compounds with recorded T/C:
compound	subject of test	result
O=C(O)CC(c1ccccc1)C(CC(=O)O)c1ccccc1 (configuration not stated)	L1210 leukemia ip in BDF1 mice, survival T/C	96 % of control
CN(C)c1ccc(Cc2ccc(N(C)C)nc2)cn1	L1210 leukemia ip in BDF1 mice, survival T/C	100 % of control
CN1C(=O)CCS(=O)(=O)C1c1ccc(Cl)cc1 (configuration not stated)	L1210 leukemia ip in BDF1 mice, survival T/C	99 % of control
O=C1c2c(I)c(I)c(I)c(I)c2C(=O)N1CCO	L1210 leukemia ip in BDF1 mice, survival T/C	92 % of control
CCCCNC(=O)Nc1cc(C)cc(C)n1	L1210 leukemia ip in BDF1 mice, survival T/C	98 % of control

Q: Supply measured T/C of CCCCOP(=O)(/C=C(\C#N)C(=O)OCC)OCCCC in your reply.
Result: 98 % of control

Q: Supply measured T/C of CC(C)(C)NC(=O)/C=C\C(=O)O in your reply.
Result: 92 % of control

Q: Supply measured T/C of CC(C)(C)c1cc(C(=S)N2CCN(C(=S)c3cc(C(C)(C)C)c(O)c(C(C)(C)C)c3)CC2)cc(C(C)(C)C)c1O in your reply.
Result: 96 % of control

Q: Supply measured T/C of S=C(Nc1ccccc1)Nc1ccccc1S in your reply.
Result: 95 % of control

Q: Supply measured T/C of O=c1cc(Sc2ccccc2)[nH]c(=O)[nH]1 in your reply.
Result: 102 % of control

Q: Supply measured T/C of O=C1CC(N2CC2)C(=O)N1c1ccccc1 (configuration not stated) in your reply.
Result: 88 % of control

Q: Supply measured T/C of Cc1cc(Br)c(C)cc1Br in your reply.
Result: 100 % of control
